Known pIC50 of a selection of molecules
molecular target: KIF18A (Homo sapiens)
Sequence (Q8NI77 whole entry): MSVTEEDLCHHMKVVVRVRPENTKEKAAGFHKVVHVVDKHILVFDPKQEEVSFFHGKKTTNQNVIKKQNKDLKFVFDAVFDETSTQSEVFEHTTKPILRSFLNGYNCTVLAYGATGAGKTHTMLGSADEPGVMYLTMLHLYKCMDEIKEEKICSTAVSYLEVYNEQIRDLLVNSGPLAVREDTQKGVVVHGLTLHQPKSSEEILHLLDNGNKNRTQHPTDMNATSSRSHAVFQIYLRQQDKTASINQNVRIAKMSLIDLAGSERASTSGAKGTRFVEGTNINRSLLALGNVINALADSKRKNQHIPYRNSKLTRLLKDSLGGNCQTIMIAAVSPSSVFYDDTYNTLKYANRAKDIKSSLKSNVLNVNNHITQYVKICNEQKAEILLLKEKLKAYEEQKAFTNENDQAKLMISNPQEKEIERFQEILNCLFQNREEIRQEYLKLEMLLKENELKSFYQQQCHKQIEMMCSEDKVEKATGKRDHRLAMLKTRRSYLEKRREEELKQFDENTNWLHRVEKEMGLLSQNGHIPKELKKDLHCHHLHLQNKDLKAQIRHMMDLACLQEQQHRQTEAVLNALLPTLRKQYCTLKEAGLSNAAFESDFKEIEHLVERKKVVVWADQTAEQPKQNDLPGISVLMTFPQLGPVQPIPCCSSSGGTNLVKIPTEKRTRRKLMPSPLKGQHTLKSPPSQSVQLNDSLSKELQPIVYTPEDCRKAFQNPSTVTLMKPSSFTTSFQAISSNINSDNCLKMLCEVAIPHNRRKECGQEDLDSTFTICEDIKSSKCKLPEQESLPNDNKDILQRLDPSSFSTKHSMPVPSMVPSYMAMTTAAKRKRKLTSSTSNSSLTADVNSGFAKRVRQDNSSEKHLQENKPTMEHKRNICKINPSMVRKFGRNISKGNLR
pIC50: −log10 of the molar value.
result_type: pIC50

O=C1c2ccc(NS(=O)(=O)CCO)cc2C2(CCCCC2)CN1c1cccc(N2CCOCC2)n1	5.69
O=C1c2ccc(NS(=O)(=O)CCO)cc2C2(CCC3(CC3)CC2)CN1c1ccc(=O)n(C2CC(F)(F)C2)n1	8.09
Cc1cc(N2CC3(CCC(C)(C)CC3)c3cc(NS(=O)(=O)CCO)ccc3C2=O)nc(N2CCC(F)(F)CC2)n1	7.36
Cc1cc(N2CC3(CCC4(CC4)CC3)c3cc(NS(=O)(=O)CCO)ccc3C2=O)nc(N2CCC(F)(F)CC2)n1	7.42
